# assay-name: in vitro
# settings: both, human, microsomes, pH 7.4
quantity-name: remaining at 2 h (%)
Please state the figure in %; there is no need to write the unit.

Query string: Give the measured remaining at 2 h for O=C(O)c1cc(-c2ccc(/C=C3\SC(=S)N(CCc4ccccc4)C3=O)o2)ccc1Cl
Result string: 41.6

----------
# Tested on: pseudovirus NL4-3ΔEnv-NanoLuc/SARS-CoV-2
# assay-name: organism not typed
# Assay type: cell-based
# settings: 293T/ACE2
Rule for this label: rule met means IC50 is less than 300 nM; rule not met means IC50 is at least 300 nM.

Please review the following examples before continuing.
INSERT INTO results (item_smiles, class_assignment) VALUES
  ('C#CCN1C(=O)/C(=C/c2ccc(-c3ccc(Cl)c(C(=O)O)c3)o2)SC1=S', 'rule not met'),
  ('Cc1ccc(-c2ccc(/C=C3\SC(=S)N(CCc4ccccc4)C3=O)o2)cc1C(=O)O', 'rule met'),
  ('O=C1NC(=S)S/C1=C\c1ccc(-c2ccc(Cl)c(C(=O)O)c2)o1', 'rule not met'),
  ('CCc1ccc(-c2ccc(/C=C3\SC(=S)N(CCc4ccccc4)C3=O)o2)cc1C(=O)O', 'rule met');

Now for a further compound.
Query string: Here's an entry: Cc1c(C(=O)O)cccc1-c1ccc(/C=C2\SC(=S)N(CCc3ccccc3)C2=O)o1 . Is its IC50 below 300 nM?
Result string: rule not met

----------
# Tested on: pseudovirus NL4-3ΔEnv-NanoLuc/SARS-CoV-2
# assay-name: organism not typed
# Format: cell-based
# settings: A549-ACE2; n=3
IC50 reference

Query string: Specify reported IC50 for the molecule shown: Cc1ccc(-c2ccc(/C=C3\SC(=S)N(CCc4ccccc4)C3=O)o2)cc1C(=O)O [NBCoV4]
Result string: 73 nM

Query string: Provide IC50 value for the following molecule: Cc1c(C(=O)O)cccc1-c1ccc(/C=C2\SC(=S)N(CCc3ccccc3)C2=O)o1 [NBCoV5]
Result string: > 2000 nM

Query string: Please report the measured IC50 for O=C(O)c1cc(-c2ccc(/C=C3\SC(=S)N(CCc4ccccc4)C3=O)o2)ccc1Cl [NBCoV1]
Result string: 63.6 nM

Query string: Item O=C(O)c1cccc(-c2ccc(/C=C3\SC(=S)N(CCc4ccccc4)C3=O)o2)c1 [NBCoV2] : provide IC50
Result string: 58 nM

Query string: Provide measured IC50 value, entry: Cc1c(C(=O)O)cncc1-c1ccc(/C=C2\SC(=S)N(CCc3ccccc3)C2=O)o1 [NBCoV9]
Result string: 596 nM

----------
# tested-target: CYP1A2 (Homo sapiens, UniProt P05177)
# Sequence (P05177 whole entry): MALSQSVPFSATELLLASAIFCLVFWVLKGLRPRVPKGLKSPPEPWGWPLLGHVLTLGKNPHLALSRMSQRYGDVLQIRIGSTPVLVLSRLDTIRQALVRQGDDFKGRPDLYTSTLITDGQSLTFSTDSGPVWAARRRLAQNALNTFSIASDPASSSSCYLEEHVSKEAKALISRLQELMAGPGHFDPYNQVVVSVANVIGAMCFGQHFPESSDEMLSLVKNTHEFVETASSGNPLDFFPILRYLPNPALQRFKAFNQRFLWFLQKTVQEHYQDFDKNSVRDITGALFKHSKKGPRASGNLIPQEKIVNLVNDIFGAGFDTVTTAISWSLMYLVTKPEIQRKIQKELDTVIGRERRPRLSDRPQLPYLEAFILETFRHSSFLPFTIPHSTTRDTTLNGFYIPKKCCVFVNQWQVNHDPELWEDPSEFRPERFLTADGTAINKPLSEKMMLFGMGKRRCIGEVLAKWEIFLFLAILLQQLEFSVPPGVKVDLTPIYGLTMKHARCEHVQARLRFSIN
# assay-name: in vitro
# settings: microsomes, pH 7.4
quantity-name: activity at 10 µM

Query string: Fill in activity at 10 µM for record O=C(O)c1cc(-c2ccc(/C=C3\SC(=S)N(CCc4ccccc4)C3=O)o2)ccc1Cl
Result string: 41.3%

----------
# tested-target: CYP2B6 (Homo sapiens, UniProt P20813)
# Sequence (P20813 whole entry): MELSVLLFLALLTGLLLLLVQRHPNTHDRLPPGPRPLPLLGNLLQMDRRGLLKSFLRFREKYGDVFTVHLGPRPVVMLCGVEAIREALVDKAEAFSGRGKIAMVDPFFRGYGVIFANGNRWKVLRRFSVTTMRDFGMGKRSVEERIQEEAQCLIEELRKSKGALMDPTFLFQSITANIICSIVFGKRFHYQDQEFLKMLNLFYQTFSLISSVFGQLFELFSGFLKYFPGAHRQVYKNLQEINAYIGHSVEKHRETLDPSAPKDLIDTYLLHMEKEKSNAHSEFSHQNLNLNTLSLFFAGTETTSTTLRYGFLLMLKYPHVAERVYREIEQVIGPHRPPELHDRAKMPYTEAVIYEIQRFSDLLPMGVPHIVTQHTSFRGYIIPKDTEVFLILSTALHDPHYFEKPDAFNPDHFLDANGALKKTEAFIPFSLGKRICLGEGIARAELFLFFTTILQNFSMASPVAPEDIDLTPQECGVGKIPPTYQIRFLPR
# assay-name: in vitro
# settings: microsomes, pH 7.4
quantity-name: activity at 10 µM

Query string: Print CYP2B6 (Homo sapiens, UniProt P20813) activity at 10 µM for O=C(O)c1cc(-c2ccc(/C=C3\SC(=S)N(CCc4ccccc4)C3=O)o2)ccc1Cl [NBCoV1] .
Result string: 15.2%

----------
# tested-target: UniProtKB P20813
# assay-name: in vitro
# settings: microsomes, pH 7.4
quantity-name: activity at 1.11 µM (%)
Hi! Could you send only the number? It should be in %, unit omitted.

Query string: Report measured activity at 1.11 µM; entry is O=C(O)c1cc(-c2ccc(/C=C3\SC(=S)N(CCc4ccccc4)C3=O)o2)ccc1Cl [NBCoV1]
Result string: 76.9

----------
# tested-target: CYP2C9 (Homo sapiens, UniProt P11712)
# Sequence (P11712 whole entry): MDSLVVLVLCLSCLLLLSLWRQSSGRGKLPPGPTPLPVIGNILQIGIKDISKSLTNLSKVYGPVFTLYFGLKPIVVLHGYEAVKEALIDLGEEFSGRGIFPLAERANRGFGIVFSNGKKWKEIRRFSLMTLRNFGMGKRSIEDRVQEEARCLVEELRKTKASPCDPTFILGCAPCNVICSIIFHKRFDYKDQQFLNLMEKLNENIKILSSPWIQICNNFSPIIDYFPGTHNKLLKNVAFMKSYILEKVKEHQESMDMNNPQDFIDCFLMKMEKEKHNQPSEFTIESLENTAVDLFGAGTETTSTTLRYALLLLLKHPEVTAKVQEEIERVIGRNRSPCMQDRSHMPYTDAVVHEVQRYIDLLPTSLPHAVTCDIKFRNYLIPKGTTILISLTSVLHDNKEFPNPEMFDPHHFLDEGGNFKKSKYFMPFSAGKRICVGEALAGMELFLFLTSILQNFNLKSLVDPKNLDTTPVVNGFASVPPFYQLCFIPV
# assay-name: in vitro
# settings: microsomes, pH 7.4
quantity-name: activity at 10 µM (%)
API: value field is a number in %; no unit string.

Query string: Please indicate activity at 10 µM recorded for O=C(O)c1cc(-c2ccc(/C=C3\SC(=S)N(CCc4ccccc4)C3=O)o2)ccc1Cl
Result string: 29.8

----------
Listing of entries alongside the reported IC50.
# Test system: pseudovirus NL4-3ΔEnv-NanoLuc/SARS-CoV-2
# assay-name: organism not typed
# Type: cell-based
# settings: 293T/ACE2
The response must be a number in nM with no trailing unit.

INSERT INTO assay_data (item_smiles, quantity_name, readout_unit, test_value) VALUES
  ('Cc1c(C(=O)O)cncc1-c1ccc(/C=C2\SC(=S)N(CCc3ccccc3)C2=O)o1', 'IC50', 'nM', 342);

Query string: Identify measured IC50 corresponding to O=C(O)c1cc(-c2ccc(/C=C3\SC(=S)N(CCc4ccccc4)C3=O)o2)ccc1Br
Result string: 65.8

Query string: Answer with reported IC50 of O=C(O)c1cccc(-c2ccc(/C=C3\SC(=S)N(CCc4ccccc4)C3=O)o2)c1F
Result string: 298

Query string: Find the measured IC50 of O=C(O)c1cc(-c2ccc(/C=C3\SC(=S)N(CCc4ccccc4)C3=O)o2)ccc1F and report it.
Result string: 60.1
